Tested on: 324938-238-R-J1-PDC complex spheroids viability
assay summary: Anticancer human tumor 324938-238-R-J1-PDC patient-derived bladder carcinoma cell line growth inhibition [CLK]
assay setup: curve of first compound; second compound 0.0316 µM
# note: exactly 1 µM is not below, so it is Not satisfied; use Satisfied for IC50 strictly under it

Determine if C=CC(=O)Nc1cc(Nc2nccc(-c3cn(C)c4ccccc34)n2)c(OC)cc1N(C)CCN(C)C + CN1CCN(c2cc(C(=O)Nc3cc4cc(-c5cnn(C)c5)ccc4cn3)ccn2)CC1 shows IC50 strictly lower than 1 µM.
Satisfied

Determine if CC1COCCN1c1cc(C2(S(C)(=N)=O)CC2)nc(-c2ccnc3[nH]ccc23)n1 (stereo not given) + CN1CCN(c2cc(C(=O)Nc3cc4cc(-c5cnn(C)c5)ccc4cn3)ccn2)CC1 shows IC50 strictly lower than 1 µM.
Not satisfied

Determine if NC(=O)C(=Cn1cnc(-c2cc(C(F)(F)F)cc(C(F)(F)F)c2)n1)c1cncnc1 + CNC(=O)c1ccc(Nc2nc(OC3CCCC3)c3c(-c4ccc5nc(C)oc5c4)c[nH]c3n2)c(OC)c1 shows IC50 strictly lower than 1 µM.
Satisfied

Determine if CC1COCCN1c1cc(C2(S(C)(=N)=O)CC2)nc(-c2ccnc3[nH]ccc23)n1 (stereo not given) + CNC(=O)c1ccc(Nc2nc(OC3CCCC3)c3c(-c4ccc5nc(C)oc5c4)c[nH]c3n2)c(OC)c1 shows IC50 strictly lower than 1 µM.
Not satisfied

Determine if C=C(F)C(=O)N1CCN(c2nc(OCC3CCCN3C)nc3c2CCN(c2cccc4cccc(Cl)c24)C3)CC1CC#N (stereo not given) + CNC(=O)c1ccc(Nc2nc(OC3CCCC3)c3c(-c4ccc5nc(C)oc5c4)c[nH]c3n2)c(OC)c1 shows IC50 strictly lower than 1 µM.
Not satisfied

====

Tested on: 324938-238-R-J1-PDC complex spheroids viability
assay summary: Anticancer human tumor 324938-238-R-J1-PDC cell line growth inhibition [CLK]; active = viability on the fitted dose curve at most 10% of control; inactive = the rest;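 further: viability read after seven days of drug exposure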
assay setup: second compound 3.16 µM; first compound 0.1 µM
// allowed return values: True (active), False (inactive)

How was CC1(C)CCC(CN2CCN(c3ccc(C(=O)NS(=O)(=O)c4ccc(NCC5CCOCC5)c([N+](=O)[O-])c4)c(Oc4cnc5[nH]ccc5c4)c3)CC2)=C(c2ccc(Cl)cc2)C1 + CNC(=O)c1ccc(Nc2nc(OC3CCCC3)c3c(-c4ccc5nc(C)oc5c4)c[nH]c3n2)c(OC)c1 classified in this test?
False

How was CCc1c2c(nc3ccc(O)cc13)-c1cc3c(c(=O)n1C2)COC(=O)[C@]3(O)CC + CN1CCN(c2cc(C(=O)Nc3cc4cc(-c5cnn(C)c5)ccc4cn3)ccn2)CC1 classified in this test?
True

How was O=c1[nH]cc(F)c(=O)[nH]1 + CNC(=O)c1ccc(Nc2nc(OC3CCCC3)c3c(-c4ccc5nc(C)oc5c4)c[nH]c3n2)c(OC)c1 classified in this test?
False

====

Assignment: determine reported viability, T/C for the given molecules.
System: 324938-238-R-J1-PDC complex spheroids viability
assay summary: Anticancer human tumor 324938-238-R-J1-PDC cell line growth inhibition [CLK];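 further: viability read after seven days of drug exposure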;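 on viability, T/C: 100% = DMSO vehicle control wells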
assay setup: second compound 10 µM; first compound 0.3 µM; stronger effect = lower value
Report the figure in % without appending any unit label.

Briefly, viability, T/C measured for CC(C)CC(NC(=O)C(Cc1ccccc1)NC(=O)c1cnccn1)B(O)O (stereo unspecified) + CNC(=O)c1ccc(Nc2nc(OC3CCCC3)c3c(-c4ccc5nc(C)oc5c4)c[nH]c3n2)c(OC)c1 : 0.19

Briefly, viability, T/C measured for CC(C)CC(NC(=O)C(Cc1ccccc1)NC(=O)c1cnccn1)B(O)O (stereo unspecified) + CN1CCN(c2cc(C(=O)Nc3cc4cc(-c5cnn(C)c5)ccc4cn3)ccn2)CC1 : 0.25

Briefly, viability, T/C measured for C=CC(=O)Nc1cc(Nc2nccc(-c3cn(C)c4ccccc34)n2)c(OC)cc1N(C)CCN(C)C + CNC(=O)c1ccc(Nc2nc(OC3CCCC3)c3c(-c4ccc5nc(C)oc5c4)c[nH]c3n2)c(OC)c1 : 11.5

Briefly, viability, T/C measured for NC(=O)C(=Cn1cnc(-c2cc(C(F)(F)F)cc(C(F)(F)F)c2)n1)c1cncnc1 + CN1CCN(c2cc(C(=O)Nc3cc4cc(-c5cnn(C)c5)ccc4cn3)ccn2)CC1 : 0.16

Briefly, viability, T/C measured for C=CC(=O)Nc1cc(Nc2nccc(-c3cn(C)c4ccccc34)n2)c(OC)cc1N(C)CCN(C)C + CN1CCN(c2cc(C(=O)Nc3cc4cc(-c5cnn(C)c5)ccc4cn3)ccn2)CC1 : 0.21

Briefly, viability, T/C measured for NC(=O)C(=Cn1cnc(-c2cc(C(F)(F)F)cc(C(F)(F)F)c2)n1)c1cncnc1 + CNC(=O)c1ccc(Nc2nc(OC3CCCC3)c3c(-c4ccc5nc(C)oc5c4)c[nH]c3n2)c(OC)c1 : 5.02

====

Assignment: determine reported viability, T/C for the given compounds.
Test system: 324938-238-R-J1-PDC complex spheroids viability
assay summary: Anticancer human tumor 324938-238-R-J1-PDC cell line growth inhibition [CLK];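 further: viability read after seven days of drug exposure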;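 on viability, T/C: 100% = DMSO vehicle control wells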
assay setup: second compound 1 µM; first compound 0.01 µM; stronger effect = lower value
Report the figure in % without appending any unit label.

Lab entry: 324938-238-R-J1-PDC complex spheroids viability assay, compound Cn1ncnc1[C@H]1c2n[nH]c(=O)c3cc(F)cc(c23)N[C@@H]1c1ccc(F)cc1 + CNC(=O)c1ccc(Nc2nc(OC3CCCC3)c3c(-c4ccc5nc(C)oc5c4)c[nH]c3n2)c(OC)c1 , viability, T/C = 13.9

Lab entry: 324938-238-R-J1-PDC complex spheroids viability assay, compound CCN1CCN(Cc2ccc(Nc3ncc(F)c(-c4cc(F)c5nc(C)n(C(C)C)c5c4)n3)nc2)CC1 + CNC(=O)c1ccc(Nc2nc(OC3CCCC3)c3c(-c4ccc5nc(C)oc5c4)c[nH]c3n2)c(OC)c1 , viability, T/C = 17.9

Lab entry: 324938-238-R-J1-PDC complex spheroids viability assay, compound CCc1c2c(nc3ccc(O)cc13)-c1cc3c(c(=O)n1C2)COC(=O)[C@]3(O)CC + CNC(=O)c1ccc(Nc2nc(OC3CCCC3)c3c(-c4ccc5nc(C)oc5c4)c[nH]c3n2)c(OC)c1 , viability, T/C = 9.22

Lab entry: 324938-238-R-J1-PDC complex spheroids viability assay, compound COc1c(OCCCN2CCOCC2)ccc2c3n(c(=NC(=O)c4cnc(N)nc4)nc12)CCN3 + CNC(=O)c1ccc(Nc2nc(OC3CCCC3)c3c(-c4ccc5nc(C)oc5c4)c[nH]c3n2)c(OC)c1 , viability, T/C = 12.1

Lab entry: 324938-238-R-J1-PDC complex spheroids viability assay, compound CCN1CCN(Cc2ccc(Nc3ncc(F)c(-c4cc(F)c5nc(C)n(C(C)C)c5c4)n3)nc2)CC1 + CN1CCN(c2cc(C(=O)Nc3cc4cc(-c5cnn(C)c5)ccc4cn3)ccn2)CC1 , viability, T/C = 1.54

====

Test system: 324938-238-R-J1-PDC complex spheroids viability
assay summary: Anticancer human tumor 324938-238-R-J1-PDC cell line growth inhibition [CLK]; active = viability on the fitted dose curve at most 10% of control; inactive = the rest;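 further: viability read after seven days of drug exposure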
assay setup: second compound 3.16 µM; first compound 0.0316 µM
// allowed return values: TRUE = active, FALSE = inactive

How was Nc1ccn(C2OC(CO)C(O)C2(F)F)c(=O)n1 (stereo not given) + CNC(=O)c1ccc(Nc2nc(OC3CCCC3)c3c(-c4ccc5nc(C)oc5c4)c[nH]c3n2)c(OC)c1 classified in this test?
FALSE

How was COc1cccc2c1C(=O)c1c(O)c3c(c(O)c1C2=O)CC(O)(C(=O)CO)CC3OC1CC(N)C(O)C(C)O1 (stereo not given) + CNC(=O)c1ccc(Nc2nc(OC3CCCC3)c3c(-c4ccc5nc(C)oc5c4)c[nH]c3n2)c(OC)c1 classified in this test?
FALSE

How was CC1(C)CCC(CN2CCN(c3ccc(C(=O)NS(=O)(=O)c4ccc(NCC5CCOCC5)c([N+](=O)[O-])c4)c(Oc4cnc5[nH]ccc5c4)c3)CC2)=C(c2ccc(Cl)cc2)C1 + CN1CCN(c2cc(C(=O)Nc3cc4cc(-c5cnn(C)c5)ccc4cn3)ccn2)CC1 classified in this test?
TRUE

How was CCc1c2c(nc3ccc(O)cc13)-c1cc3c(c(=O)n1C2)COC(=O)[C@]3(O)CC + CN1CCN(c2cc(C(=O)Nc3cc4cc(-c5cnn(C)c5)ccc4cn3)ccn2)CC1 classified in this test?
TRUE

How was COc1ccc([C@@H](O)c2cc(-c3ncnc4cc(N5CCOCC5)ccc34)c(F)cc2Cl)nn1 + CNC(=O)c1ccc(Nc2nc(OC3CCCC3)c3c(-c4ccc5nc(C)oc5c4)c[nH]c3n2)c(OC)c1 classified in this test?
FALSE

====

System: 324938-238-R-J1-PDC complex spheroids viability
assay summary: Anticancer human tumor 324938-238-R-J1-PDC cell line growth inhibition [CLK]; active means viability on the fitted dose curve at most 10% of control; inactive means the rest;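 further: viability read after seven days of drug exposure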
assay setup: second compound 3.16 µM; first compound 0.1 µM
// allowed return values: 1.0 for active, 0.0 for inactive

How was CC(=O)O[C@H]1C(=O)[C@@]2(C)[C@H]([C@H](OC(=O)c3ccccc3)[C@]3(O)C[C@H](OC(=O)[C@H](O)[C@@H](NC(=O)c4ccccc4)c4ccccc4)C(C)=C1C3(C)C)[C@]1(OC(C)=O)CO[C@@H]1C[C@@H]2O + CNC(=O)c1ccc(Nc2nc(OC3CCCC3)c3c(-c4ccc5nc(C)oc5c4)c[nH]c3n2)c(OC)c1 classified in this test?
0.0

How was C=C(F)C(=O)N1CCN(c2nc(OCC3CCCN3C)nc3c2CCN(c2cccc4cccc(Cl)c24)C3)CC1CC#N (configuration not stated) + CN1CCN(c2cc(C(=O)Nc3cc4cc(-c5cnn(C)c5)ccc4cn3)ccn2)CC1 classified in this test?
1.0
